Data credit: paper PMC8909127

- TESTED_ON: T1, MLLT4 PDZ (human, UniProt P55196 1002-1095)
- T1 construct: PDZ domain of human MLLT4 (Afadin); the residues named in the structure (1014-1022, 1071) fit 1002-1095; also called Afadin PDZ; not shown: His tag, N-terminal, cleaved; MBP, N-terminal, cleaved
- T1 sequence (looked up): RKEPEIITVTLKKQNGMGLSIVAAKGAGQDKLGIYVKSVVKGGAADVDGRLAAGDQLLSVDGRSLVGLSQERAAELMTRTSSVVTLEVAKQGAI
- EXPERIMENTAL_PROTOCOL: MST; […]; PBS tween 20 0.05%; room temperature; […]; duplicate
- SETTINGS: both partners purified
QUANTITY_NAME: Kd

{"BINDER": "NLNSSRVLDLLV (also called P71L PBM peptide; SARS-CoV-2 P71L) [C-terminal SARS-CoV-2-E PBM P71L peptide of the beta variant]", "OBS_VALUE": "> 1000 µM"}
